System: RXF 393 renal
procedure-text: NCI tumour cell line growth inhibition, 48 h
Let's look at some compounds and their measured TGI.

compound	TGI
CCC[CH2][Sn](=[O])[CH2]CCC	> 50 µM
CCOC(=O)C1(C(=O)OCC)C(C(C)(C)C)=C(C)c2ccccc21	26.6 µM
COC(=O)CCc1ccc(CCC(=O)OC)cc1	> 100 µM
COc1ccc(S(=O)(=O)Nc2ccc(-c3csc(N4C(=O)/C(=C/c5ccccc5[N+](=O)[O-])N=C4c4ccccc4)n3)cc2)cc1Cl	> 100 µM
FC1(F)ON2CCc3ccccc3C2[C@H]1c1ccccc1 (stereo partly specified)	> 100 µM
C(=N\Nc1ncc(-c2cc3cc4c(cc3o2)OCO4)s1)/c1ccco1	5.13 µM
COC(=O)Nc1nc2ccc(NS(=O)(=O)c3cccs3)cc2[nH]1	85.8 µM
NC(=S)N/N=C/c1ccc(OC(=O)COc2cc(Cl)c(Cl)cc2Cl)cn1	21.4 µM

Just so you know, measured TGI for COc1ccc(-c2ncnc3c2ncn3CC#CCCl)cc1 came out at 5.94 µM

Just so you know, measured TGI for COc1ccc2cc(-c3cnc4nonc4n3)ccc2c1 came out at 7.31 µM

Just so you know, measured TGI for CCOP(=O)(OCC)Oc1c(OC)c2[nH]c(C(=O)OC)cc2c2c(C(=O)O)c[nH]c12 came out at > 100 µM

---

Let's look at some compounds and their measured GI50.
Test system: MDA-MB-231 breast
procedure-text: NCI tumour cell line growth inhibition, 48 h

compound	system	GI50
CCN1CCN(CCNc2nccc(-c3c(-c4ccc(F)c(O)c4)nc4occn34)n2)S1(=O)=O	MDA-MB-231 breast	32.3 µM
COc1ccccc1C#Cc1ccccc1C#Cc1ccc(OCCCCCCOc2ccccc2C#Cc2ccccc2C#Cc2ccccc2OC)cc1	MDA-MB-231 breast	> 100 µM
C=C(C)[C@@H]1CC[C@]2(CO)CC[C@]3(C)[C@H](CC[C@@H]4[C@@]5(C)CCCNC(C)(C)[C@@H]5CC[C@]43C)[C@@H]12	MDA-MB-231 breast	1.77 µM
O=S(=O)(N=C1C(Cl)=C(Cl)C(=NS(=O)(=O)c2ccccc2)C(Cl)=C1Cl)c1ccccc1	MDA-MB-231 breast	21.9 µM
CN1C(=O)CCC(N2C(=O)c3cccc(NCCOCCOCCNC(=O)c4cc5c(o4)C(=O)c4ccccc4C5=O)c3C2=O)C1=O (configuration not stated)	MDA-MB-231 breast	2.64 µM
CN(C)c1ccc(/C=N/NC(N)=S)nc1	MDA-MB-231 breast	5.43 µM
Nc1ncc(-c2ccc3ncnc(Nc4cccc(Cl)c4)c3c2)cn1	MDA-MB-231 breast	2.22 µM
NC(=S)N/N=C/c1ccc(OC(=O)COc2cc(Cl)c(Cl)cc2Cl)cn1	MDA-MB-231 breast	4.53 µM

Just so you know, measured GI50 for CCCc1nn(C)c2c(=O)[nH]c(-c3cc(S(=O)(=O)N4CCN(C)CC4)ccc3OCC)nc12 came out at > 100 µM

Just so you know, measured GI50 for C(=N\Nc1ncc(-c2cc3cc4c(cc3o2)OCO4)s1)/c1ccco1 came out at 1.64 µM

Just so you know, measured GI50 for COc1cc(CCC[P+](c2ccccc2)(c2ccccc2)c2ccccc2)c(OC)c2c1OCO2 came out at 2.11 µM

Just so you know, measured GI50 for COc1cc(-c2nn(-c3cccc(NC(=O)Nc4ccc(Cl)c(C(F)(F)F)c4)c3)cc2-c2ccncc2)ccc1Cl came out at 0.76 µM

---

Let's look at some compounds and their measured TGI.
Test system: HL-60(TB) leukemia
procedure-text: NCI tumour cell line growth inhibition, 48 h
Field format: number, assumed µM, no unit text.

Consider the reported TGI for these compounds:
compound	value-type	display-unit	result
CC(C)(C)C1=C(Br)C(F)(C(C)(C)C)OP1(=O)c1ccccc1 (stereo not given)	TGI	µM	16.2
CCOC(=O)c1[nH]c2cc(Cl)ccc2c1[C@@H](C(=O)NC(C)(C)C)N(CC)C(=O)CCCCC#Cc1cccc2c1CN(C1CCC(=O)NC1=O)C2=O (stereo not given in full)	TGI	µM	0.0959
Cc1cc(OCc2nnc3n2S(=O)(=O)c2ccccc2N3C)ccc1Cl	TGI	µM	55.1
CC(C)(C)c1ccc2c(c1)OP1(Oc3c(Cl)cc(Cl)c4cccnc34)(O2)Oc2ccc(C(C)(C)C)cc2O1	TGI	µM	10.1
COc1ccc(C2CC(c3c(O)ccc4ccccc34)=NN2)cc1OC (stereo not given)	TGI	µM	63.5

Observed TGI on HL-60(TB) leukemia, entry Cc1ccc(NCC2(/N=C/c3ccccc3)OC(CO)C(O)C2O)cc1 (stereo not given) , equals 64.7

Observed TGI on HL-60(TB) leukemia, entry Fc1cc(C2=Nn3c(COc4ccccc4Cl)nnc3S/C2=C\c2ccc(Cl)cc2)c(Cl)cc1Cl , equals 68.4

Observed TGI on HL-60(TB) leukemia, entry COc1ccc(-c2ncnc3c2ncn3CC#CCCl)cc1 , equals 17.6

---

System: TK-10 renal
procedure-text: NCI tumour cell line growth inhibition, 48 h
Let's look at some compounds and their measured TGI.

Consider the reported TGI for these compounds:
compound	TGI
COc1ccc(CC(=O)NCCc2ccc(OC)c(OC)c2OC)cc1	> 100 µM
COC(=O)/C=C1/SC(=Nc2cccc(Cl)c2)N(CCc2c[nH]c3ccc(O)cc23)C1=O	5.65 µM
COc1c2c(c3c(c1OC)c(=O)c1ccccc1n3C)OCO2	> 100 µM
COc1cc(C2C=C(c3ccccc3)Oc3cc4c(cc32)OCO4)cc(OC)c1OC (stereo not drawn)	> 100 µM
COC(=O)c1cc2c(c(C(=O)OC)c1)CCC2	> 100 µM

Just so you know, measured TGI for Nc1nc(=O)n(C2CCC(CO)O2)cc1F (stereo not drawn) came out at > 100 µM

Just so you know, measured TGI for CC#Cc1c(O)c2c(c(O)c1C#CC)C(=O)c1ccccc1C2=O came out at > 100 µM

Just so you know, measured TGI for COc1ccc(CCN2CCN(CCCc3ccccc3)CC2)cc1 came out at > 100 µM

Just so you know, measured TGI for Cn1c(-c2ccc(C=O)o2)ccc1-c1ccc(C=O)o1 came out at > 100 µM

Just so you know, measured TGI for C[C@H](Nc1nc(N)c(N=O)c(=O)n1C)C(=O)O came out at > 10 µM

---

Tested on: OVCAR-5 ovarian
procedure-text: NCI tumour cell line growth inhibition, 48 h; in the data active = GI50 below about 0.43 µM; inactive = the rest
Thanks in advance; please answer with one of these: 1 (yes) for active, 0 (no) for inactive

Example cases with answers are listed next.
compound	cat
NC(=S)N/N=C/c1ccc(OC(=O)COc2cc(Cl)c(Cl)cc2Cl)cn1	0 (no)
COc1ccc2c(c1)CCC1C2CC[C@@]2(C)C1CC[C@@H]2NC(=O)Cc1ccc(O)c(O)c1 (some centres not stated)	0 (no)
COc1cc(-c2nn(-c3cccc(NC(=O)Nc4ccc(Cl)c(C(F)(F)F)c4)c3)cc2-c2ccncc2)ccc1Cl	0 (no)

Query block: What was the test verdict on CSc1ccc(C2=NN(C(C)=O)C(c3ccc(-c4cc(Cl)c(Cl)cc4Cl)o3)C2)cc1 (configuration not stated) ?
Result block: 0 (no)

Query block: What was the test verdict on Cc1ccc(CNc2ccc3nc(CCC4CCCCC4)[nH]c3c2)cc1 ?
Result block: 0 (no)

Query block: What was the test verdict on NCCCCC(NC(=O)C(N)CCCN=C(N)N)C(=O)NC(CCCCN)C(=O)NC(CCCN=C(N)N)C(=O)NC(CCCN=C(N)N)C(=O)NC(CCC(N)=O)C(=O)NC(CCCN=C(N)N)C(=O)NC(CCCN=C(N)N)C(=O)NC(CCCN=C(N)N)C(=O)NCC(=O)NCC(=O)O (configuration not stated) ?
Result block: 0 (no)

Query block: What was the test verdict on COc1cnc2c(c1)C(=O)c1c-2n(CCCN2CCCC2)c(=O)c2cc([N+](=O)[O-])ccc12 ?
Result block: 1 (yes)

---

Let's look at some compounds and their measured TGI.
System: DU-145 prostate
procedure-text: NCI tumour cell line growth inhibition, 48 h

compound	TGI
O=C(c1c(F)c(F)c(F)c(F)c1F)c1c(F)c(F)c(F)c(F)c1F	4.64 µM
COC[C@H](NC(=O)c1cnc(C)s1)C(=O)N[C@@H](COC)C(=O)N[C@@H](Cc1ccccc1)C(=O)[C@@]1(C)CO1	> 100 µM
O=S(=O)(O)c1ccc(N=Nc2ccccc2)cc1	> 100 µM
O=c1onc2n1-c1ccc(Cl)cc1C(=S)N1CSCC21 (stereo not given)	> 100 µM
Cc1c(CN2CCN(C(=O)[C@H](C)O)CC2)sc2c(N3CCOCC3)nc(-c3cnc(N)nc3)nc12	> 100 µM

Observed TGI on DU-145 prostate, entry O=C(O)/C=C/c1ccc(Oc2ccccc2C(=O)O)o1 , equals > 10 µM

Observed TGI on DU-145 prostate, entry COc1ccc(Nc2nc(NCCNc3ccnc4cc(Cl)ccc34)nc(N3CCOCC3)n2)cc1 , equals 21.9 µM
